- Tested on: U251 CNS
- Protocol: NCI tumour cell line growth inhibition, 48 h
Recorded Metric: TGI

Some entries whose results are on file:
COc1cc(C(O)C(=O)c2cnc3cc([N+](=O)[O-])ccc3n2)ccc1O (centres undefined) | > 100 µM
COc1cc(O)cc(O)c1C(=O)CC(Cl)(Cl)Cl | > 100 µM
c1ccc2c(c1)Sc1ccccc1N2C1CN2CCC1CC2 (centres undefined) | 30.9 µM
Cc1ccc2nc3c(n2c1)C(=O)C(=O)c1ccccc1-3 | 0.419 µM
O=C1c2cccnc2-c2nccc3c2c1nc1ccc(Br)cc13 | 0.147 µM
CC1CCOc2ccc(cc2)C=Nc2ccc(cc2)-c2ccc(cc2)N=Cc2ccc(cc2)OCC1 (centres undefined) | > 100 µM
O=C1C=C(O)c2c(O)ccc(O)c2C1=O | > 100 µM
O=C1c2cccc3c(Cl)ccc(c23)C(=O)N1CCCN1CCN(CCCN2C(=O)c3cccc4c(Cl)ccc(c34)C2=O)CC1 | > 100 µM
O=C1c2cc3c(cc2CC1Cc1ccc2c(c1)CCC2)CCC3 (centres undefined) | > 100 µM
C[C@@]12C[C@@H](c3ccccc3O1)N1Cc3ccccc3CSC1=N2 | > 100 µM

Hey, can you go through the list below and give me TGI for every item?
1. O=c1ccn(C2(CO)C=C(CO)C(O)C2O)c(=O)[nH]1 (centres undefined)
2. COc1ccc(-c2nc(-c3ccccn3)c(-c3ccccn3)n2CC(C)C)cc1OC1CCCC1
3. COc1ccc(N=Nc2c(-c3ccccc3)nn(C(=O)CC(=O)Nc3ccccc3Cl)c2-c2ccccc2)cc1
4. Cn1cnc(SC2=C3C(=O)C=C4S[C@H]5C[C@]42c2c(c(O)c4c6c2=[N+]3CCC=6C=N4)N5)c1CC(N)C(=O)O (some centres undefined)
5. O=C(Cc1ccc(Nc2ccnc(C(F)(F)F)c2)cc1)Nc1cc(Cl)ccc1O
6. Cc1cc2oc3c(ccc(=O)n3C)c(=O)c2c(C)c1Cl
7. CCC(C)c1cccc(C)c1NC(=O)C(=O)Cc1nc2ccccc2s1 (centres undefined)
8. S=C(N/N=C(\C(=N/NC(=S)N1CCCCC1)c1ccccn1)c1ccccn1)N1CCCCC1

Given back:
1. > 25.7 µM
2. 86.9 µM
3. > 100 µM
4. 31.3 µM
5. 23.6 µM
6. > 100 µM
7. > 100 µM
8. > 100 µM

// TGI lookup, compound = CC1C(C#N)(C#N)C(C#N)=C(N)C1(C)[N+](=O)[O-] (centres undefined) , result: > 100 µM

The reported measurements were obtained from PubChem BioAssay (NCI).
